- System Name: T1, Human Clec5A (human, UniProt Q9NY25 1-188)
- T1 construct: also called hClec5A
- T1 sequence: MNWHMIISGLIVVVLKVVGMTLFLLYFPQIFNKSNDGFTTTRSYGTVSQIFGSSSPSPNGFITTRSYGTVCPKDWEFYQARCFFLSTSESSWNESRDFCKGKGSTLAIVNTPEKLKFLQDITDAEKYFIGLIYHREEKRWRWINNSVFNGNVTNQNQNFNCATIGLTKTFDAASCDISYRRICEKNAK
- Test Protocol: flow, Jurkat, 100 nM Ab
# Lookup of reported MFI normalized to WT keyed by entry
Answer with a bare number; do not write a unit.

[
  {
    "Binder": "KW7.3.7 (antibody, V domains shown) VH: EVQLVESGGGLVQPGGSLRLSCAASGFTFSSYAMSWVRQAPGKGLEWVSATSGSGGSTYYADSAKGRFTISRDNSKNTLYLQMNSLRAEDTAVYYCARGGYLPDAFDYWGRGTLVTVSS VL: DIQMTQSPSSLSASVGDRVTITCWASQSISSYLNWYQQEPGKAPKLLIYAASSLQSGVPSRFSGSGSGTDFTLTISSLQPEDFATYYCQQTYSTPLTFGQGTKVEIK",
    "Recorded Measurement": 1.08
  }
]

Here's the next entry for you.
Item KW9.3.3 (antibody, V domains shown) VH: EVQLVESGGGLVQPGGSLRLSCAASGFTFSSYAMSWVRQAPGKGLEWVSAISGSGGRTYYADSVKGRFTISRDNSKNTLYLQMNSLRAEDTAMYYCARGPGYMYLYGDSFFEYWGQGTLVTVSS VL: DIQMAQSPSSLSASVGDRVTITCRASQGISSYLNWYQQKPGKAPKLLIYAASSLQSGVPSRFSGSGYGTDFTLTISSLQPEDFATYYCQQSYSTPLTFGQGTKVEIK has what recorded MFI normalized to WT?
0.93
